Molecular target: T1, biotinylated recombinant human IL-12Rβ2 (human, UniProt Q99665 24-622, random biotinylated)
T1 construct: Recombinant protein produced in-house, biotinylated; also called hIL-12RB2; human IL-12RB2
T1 sequence: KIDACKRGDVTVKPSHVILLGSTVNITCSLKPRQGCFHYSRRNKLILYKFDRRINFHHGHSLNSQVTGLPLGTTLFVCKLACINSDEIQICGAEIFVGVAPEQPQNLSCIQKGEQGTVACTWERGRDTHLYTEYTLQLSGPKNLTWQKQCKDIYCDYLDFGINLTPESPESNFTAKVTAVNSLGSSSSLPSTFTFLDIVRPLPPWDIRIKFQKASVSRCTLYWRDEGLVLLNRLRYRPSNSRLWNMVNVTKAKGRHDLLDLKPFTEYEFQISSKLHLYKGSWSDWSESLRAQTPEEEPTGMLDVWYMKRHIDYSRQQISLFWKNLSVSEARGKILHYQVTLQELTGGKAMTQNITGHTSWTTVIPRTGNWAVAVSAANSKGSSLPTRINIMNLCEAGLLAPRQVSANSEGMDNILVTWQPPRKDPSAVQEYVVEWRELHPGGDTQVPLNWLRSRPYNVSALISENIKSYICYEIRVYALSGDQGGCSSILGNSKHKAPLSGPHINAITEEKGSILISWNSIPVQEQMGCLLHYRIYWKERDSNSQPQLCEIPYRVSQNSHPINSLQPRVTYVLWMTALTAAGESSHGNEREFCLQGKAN
Assay: BLI (Octet), periplasmic extract on biotinylated hIL-12Rβ2 on streptavidin tips, 1:1 model
Would you mind labelling by koff? At or over 0.005 s⁻¹ is Satisfied, under is Not satisfied.

- binder: "anti-IL-12Rβ2 VHH clone 21054 (VHH, not shown: small tags and cut ends, tested as periplasmic extract; also called 3CRHM18) VHH: QVQLQESGGGLVQDGGSLRLSCAASGRTFSNYAMAWFRQAPGTEREFVAGLSGSGGDTAFYDNSVMGRFTISRDSAKNTMWLQINNLKPEDTAVYYCAAATHVVVSYGLVRKRGTYDYWGQGTQVTVSS"
  category-label: "Satisfied"
- binder: "anti-IL-12Rβ2 VHH clone 20408 (VHH, not shown: small tags and cut ends, tested as periplasmic extract; also called 3CAHS172) VHH: QVQLQESGGGSVQAGGSLRLSCGASGFTFSSFGMHWFRQAPGKGQEWVATISSSGGTTYYSDSVKGRFTISRDNAKNTLYLQMNSLKPEDTALYYCARDVTGAVRGQGTQVTVSS"
  category-label: "Not satisfied"
- binder: "anti-IL-12Rβ2 VHH clone 21051 (VHH, not shown: small tags and cut ends, tested as periplasmic extract; also called 3CAHM40) VHH: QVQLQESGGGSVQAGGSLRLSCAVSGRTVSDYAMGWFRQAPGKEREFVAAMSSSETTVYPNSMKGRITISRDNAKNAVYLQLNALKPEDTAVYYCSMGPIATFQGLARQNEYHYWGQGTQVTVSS"
  category-label: "Satisfied"
- binder: "anti-IL-12Rβ2 VHH clone 21065 (VHH, not shown: small tags and cut ends, tested as periplasmic extract; also called 3CRHM240) VHH: QVQLQESGGGSVQAGGSLRLSCAVSGRTVSDYAMGWFRQAPGKEREFVVAMSSSETTVYTNSVKGRITISRDNAKNAVYLQMNALKPEDTAVYYCSMGPITTFQGLARQNEYHYWGQGTQVTVSS"
  category-label: "Not satisfied"
